The reported measurements were obtained from patent US20250346644A1.

Consider the following binders and their measured koff readings.
biological target: T1, hIL2-DM-his (human, UniProt P60568 21-153); assay: BLI ForteBio, Ab on Protein A sensor
T1 construct: expressed in ExpiCHO-S cells, nickel-column purified; also called hIL-2 mutein containing two point mutations K64G and N90R (with a his-tag); not shown: his-tag
T1 sequence (P60568 21-153 K84G/N110R): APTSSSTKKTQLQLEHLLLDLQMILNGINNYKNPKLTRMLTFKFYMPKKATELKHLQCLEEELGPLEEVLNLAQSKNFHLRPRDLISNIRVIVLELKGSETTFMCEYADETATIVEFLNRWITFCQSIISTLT
Give the value, in units of s⁻¹, as a plain number.

In the examples that follow, each entry is paired with its recorded koff.
binder	koff [s⁻¹]
K4G12 (antibody, V domains shown) VH: QVQLVQSGAEVKKPGATVKISCKVSGDTITAYYMHWVRQAPGQGLEWIGRIDPDDDSTKYAENFKGRVTITADTSTDTAYMELSSLRSEDTAVYYCTTITFLYTRELRWFAYWGQGTLVTVSS VL: DIVLTQSPATLSLSPGERATLSCQASQYIGNYLSWYQQKPGQAPRLLIYSATSLASGIPARFSGSRSGTDFTLTISSLEPEDFAVYYCLQHYSTPYTFGQGTKLEIK	0.000326
K4G8 (antibody, V domains shown) VH: QVQLVQSGAEVKKPGATVKISCKVSGDTITAYYMHWVRQAPGQGLEWIGRIDPEDDSTKYAENFKGRVTITADTSTDTAYMELSSLRSEDTAVYYCTTITFLYSRELRWFAYWGQGTLVTVSS VL: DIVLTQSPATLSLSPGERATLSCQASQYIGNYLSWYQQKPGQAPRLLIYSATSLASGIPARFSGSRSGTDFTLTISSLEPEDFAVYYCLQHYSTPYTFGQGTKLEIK	0.000856

Measured koff of K1G9 (antibody, V domains shown) VH: QVQLVQSGAEVKKPGATVKISCKVSGDTITAYYMHWVRQAPGQGLEWIGRIDPEDDSTKYAENFKGRVTITADTSTDTAYMELSSLRSEDTAVYYCTTITFLYTRELRWFAYWGQGTLVTVSS VL: DIVLTQSPATLSLSPGERATLSCQASQYISNYLSWYQQKPGQAPRLLIYQATSLASGIPARFSGSRSGTDFTLTISSLEPEDFAVYYCLQHYSTPYTFGQGTKLEIK : 0.000285
